# protocolConditions: in 2-butanone, 308.18 K
assayMetric: solubility (mole fraction)

Q: // query solubility (mole fraction) value for entry O=P1(Oc2ccccc2)OCC2(CO1)COP(=O)(Oc1ccccc1)OC2 (stereo unspecified)
Ans: 0.00575

###

# protocolConditions: in water, 317.46 K
assayMetric: solubility (mole fraction)
Just the number, please.

Q: // query solubility (mole fraction) value for entry O=P(O)(CO)c1ccccc1
Ans: 0.0206

###

# protocolConditions: in ethanol, 338.16 K
assayMetric: solubility (mole fraction)
Just the number, please.

Q: // query solubility (mole fraction) value for entry O=P1(Oc2ccccc2)OCC2(CO1)COP(=O)(Oc1ccccc1)OC2 (stereo unspecified)
Ans: 0.00426

Values were extracted from BigSolDB 2.1.
